Catalogue of viability at 0.195 µg/mL values
tested on: HepG-2; experiment: MTT anti-proliferative assay, HepG-2; format: cell-based, human; conditions: Homo sapiens, HepG2; HepG-2, 0.195 ug/ml
Metric name: viability at 0.195 µg/mL

Compound string: O=C(Cn1cnc2cc([N+](=O)[O-])ccc2c1=O)Nc1ccccc1
Val: 45.9%
--
Compound string: O=C(Cn1cnc2cc([N+](=O)[O-])ccc2c1=O)Nc1ccc(Cl)cc1
Val: 83.4%
--
Compound string: O=C(Cn1cnc2cc(Cl)ccc2c1=O)Nc1ccc(F)c(Cl)c1
Val: 93.8%

* * *

Catalogue of IC50 values
test system: MCF-7; assay: MTT anti-proliferative assay, MCF-7; assay type: cell-based, human; details: Homo sapiens, MCF7; MTT, MCF-7; read-out: Cytotoxicity against cancer cells IC50 MCF-7

Compound: O=C(Cn1cnc2cc([N+](=O)[O-])ccc2c1=O)Nc1ccc(Cl)cc1
IC50: 672 nM
--
Compound: O=C(Cn1cnc2cc(Cl)ccc2c1=O)Nc1ccccc1
IC50: 696 nM
--
Compound: CNC(=O)c1cc(Oc2ccc(NC(=O)Nc3ccc(Cl)c(C(F)(F)F)c3)cc2)ccn1 [Sorafenib, sorafenib, reference compound]
IC50: 128 nM
--
Compound: O=C(Cn1cnc2cc([N+](=O)[O-])ccc2c1=O)Nc1ccccc1
IC50: 282 nM

* * *

assay: MTT cytotoxicity against normal cells; format: cell-based, human; conditions: human, HEK-293 cells (normal human embryonic kidney); HEK-293, 1.563 umol/ml

Compound string: O=C(Cn1cnc2cc([N+](=O)[O-])ccc2c1=O)Nc1ccccc1Cl
viability at 3 days, 1.563 umol/ml (%): 52.7

* * *

tested on: MCF-7; experiment: MTT anti-proliferative assay, MCF-7; format: cell-based, human; conditions: Homo sapiens, MCF7; MTT, MCF-7; read-out: Cytotoxicity against cancer cells IC50 MCF-7

Compound string: O=C(Cn1cnc2cc(Cl)ccc2c1=O)Nc1ccc(Cl)cc1
Measurement target: MCF-7
IC50 [nM]: 188
//
Compound string: O=C(Cn1cnc2cc([N+](=O)[O-])ccc2c1=O)Nc1ccc(F)c(Cl)c1
Measurement target: MCF-7
IC50 [nM]: 231
//
Compound string: O=C(Cn1cnc2cc(Cl)ccc2c1=O)Nc1ccc(F)c(Cl)c1
Measurement target: MCF-7
IC50 [nM]: 552
//
Compound string: O=C(Cn1cnc2cc([N+](=O)[O-])ccc2c1=O)Nc1ccccc1Cl
Measurement target: MCF-7
IC50 [nM]: 209
//
Compound string: O=C(Cn1cnc2cc(Cl)ccc2c1=O)Nc1ccccc1Cl
Measurement target: MCF-7
IC50 [nM]: 191

* * *

test system: HepG-2; assay: MTT anti-proliferative assay, HepG-2; format: cell-based, human; conditions: Homo sapiens, HepG2; HepG-2, 6.25 ug/ml; read-out: Toxicity %
Metric name: cytotoxicity at 6.25 µg/mL

Compound string: O=C(Cn1cnc2cc([N+](=O)[O-])ccc2c1=O)Nc1ccccc1
Val: 93%

Compound string: O=C(Cn1cnc2cc(Cl)ccc2c1=O)Nc1ccccc1
Val: 92.1%

Compound string: O=C(Cn1cnc2cc(Cl)ccc2c1=O)Nc1ccccc1Cl
Val: 91.6%

Compound string: O=C(Cn1cnc2cc([N+](=O)[O-])ccc2c1=O)Nc1ccc(Cl)cc1
Val: 88.3%

Compound string: O=C(Cn1cnc2cc([N+](=O)[O-])ccc2c1=O)Nc1ccccc1Cl
Val: 92.2%
